# Assay Details: Plasma pharmacokinetics by LC-MS/MS
# Test Context: human, plasma, oral, Median Cmax [Min; Max], plasma binimetinib; Cycle 1 Day 1 (C1D1); Dose Level 3: AEB071 300 mg bid and MEK162 30 mg bid
Result Type: Cmax (ng/mL)
Report only the number, with the unit ng/mL understood.

Query block: Please give the documented Cmax of Cn1cnc2c(F)c(Nc3ccc(Br)cc3F)c(C(=O)NOCCO)cc21 [binimetinib]
Result block: 213

###

# Assay Details: Plasma pharmacokinetics by LC-MS/MS
# Test Context: human, plasma, oral, Median AUC0–8hr [Min; Max], plasma binimetinib; 2nd section, Cycle 1 Day 1 (C1D1); Dose Level 5: AEB071 350 mg bid and MEK162 30 mg bid
Result Type: AUC(0-t) (µg·h/mL)
Give just the number in µg·h/mL; leave the unit off.

Query block: Item Cn1cnc2c(F)c(Nc3ccc(Br)cc3F)c(C(=O)NOCCO)cc21 [binimetinib] : provide AUC(0-t)
Result block: 1.25
